Target: T1, recombinant human TROP2 extracellular domain (aa 1-274) comprising His tag (human, UniProt P09758 27-274)
T1 construct: Used here for all assays on recombinant human TROP2 (ELISA, immunoblot, SPR, crystal), although only some of them name the catalogue number; also called human recombinant TROP2; recombinant human TROP2 protein; not shown: His tag
T1 sequence: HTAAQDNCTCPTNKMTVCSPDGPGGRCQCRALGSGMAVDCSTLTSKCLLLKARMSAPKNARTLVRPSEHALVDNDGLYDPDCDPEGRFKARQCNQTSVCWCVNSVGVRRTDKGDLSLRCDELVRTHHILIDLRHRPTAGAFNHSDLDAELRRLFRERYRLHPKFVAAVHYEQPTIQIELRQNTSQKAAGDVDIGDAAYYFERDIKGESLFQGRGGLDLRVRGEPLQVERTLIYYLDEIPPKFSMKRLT
Experiment: ELISA, coated rh TROP2
measuredMetric: EC50% to KD005

Endpoint output: EC50% to KD005 of KD043 (antibody, V domains shown, KD005 humanized variant) VH: EVQLLESGGGLVQPGGSLRLSCAASGFTFSGSDMSWVRQAPGKGLEWVSAITSGGTTYYADTVKGRFTISRDNSKNTLYLQMNSLRAEDTAVYYCAKSRLTDSHYVEDAWGQGTLVTVSS . Value?
1.12 ratio to KD005

Query KD058 (antibody, V domains shown, KD005 humanized variant) VH: QVQLQESGGGLIQPGGSLRLSCAASGFTFSGSDMSWVRQAPGKGLEWVSYITSGGTTYYADTVKGRFTISRDNSKNTLYLQMNSLRAEDTAVYYCAKSRLTDSHYVEDAWGQGTLVTVSS next
1.25 ratio to KD005

Moving on to the next binder: KD062 (antibody, V domains shown, KD005 humanized variant) VH: QVQLQESGGGLIQPGGSLRLSCAASGFTFSGSDMSWVRQAPGKGLEWVSYITSGGTTYYADTVKGRFTISRDNSKNTLYLQMNSLRAEDTALYRCAKSRLTDSHYVEDAWGQGTLVTVSS
1.75 ratio to KD005

Next: KD060 (antibody, V domains shown, KD005 humanized variant) VH: QVQLQESGGGLIQPGGSLRLSCAASGFTFSGSDMSWVRQAPGKGLEWVSYITSGGTTYYPDTVKGRFTISRDNSKNTLYLQMNSLRAEDTAVYRCAKSRLTDSHYVEDAWGQGTLVTVSS
1.38 ratio to KD005
